# System Under Test: beta-secretase activity (Homo sapiens, UniProt P56817)
# Construct: endogenous in cells
# Sequence (P56817 46-501): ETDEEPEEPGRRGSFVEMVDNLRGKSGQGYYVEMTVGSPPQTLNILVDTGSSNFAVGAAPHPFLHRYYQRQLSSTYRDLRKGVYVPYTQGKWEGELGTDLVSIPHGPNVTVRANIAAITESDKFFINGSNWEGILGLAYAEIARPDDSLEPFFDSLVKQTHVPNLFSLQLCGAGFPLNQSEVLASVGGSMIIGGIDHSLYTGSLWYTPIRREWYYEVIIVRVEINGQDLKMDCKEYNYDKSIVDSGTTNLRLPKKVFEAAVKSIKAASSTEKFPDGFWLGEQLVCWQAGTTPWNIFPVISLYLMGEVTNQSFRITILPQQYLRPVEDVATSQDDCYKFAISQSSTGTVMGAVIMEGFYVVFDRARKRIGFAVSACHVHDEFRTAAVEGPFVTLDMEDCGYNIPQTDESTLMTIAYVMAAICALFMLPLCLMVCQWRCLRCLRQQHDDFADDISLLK
# Assay Details: Whole cell assay for measuring the inhibition of beta-secretase activity
# Experimental Conditions: HEK293/APP751sw or HEK293/APP751wt cells, 37 C for 4 to 6 hours, sandwich ELISA of conditioned media; read-out: IC50 (Abeta, sAPPbeta-lowering effect)
pIC50: −log10 of the molar value. Structures can show the parent of a compound that is named as a salt.
Observed Property: pIC50

Please review the entries below; each comes with its answer.
CCC(C)Nc1cc(C(=O)NC(Cc2ccccc2)C(O)C2CC(F)CN2)cc(N(C)S(C)(=O)=O)n1 (stereo not shown) [Example 7, bishydrochloride] : 7.89
CC(=O)N[C@@H](Cc1cc(F)cc(F)c1)[C@H](O)[C@H]1C[C@@H](CC(=O)N2CCCCCC2)CN1 [Example 41, hydrochloride] : 5.22

a. CC(=O)N[C@@H](Cc1cc(F)cc(F)c1)[C@H](O)[C@H]1C[C@@H](CC(=O)N2CCCCC2)CN1 [Example 33, hydrochloride]
b. CCC(C)Nc1cc(C(=O)NC(Cc2ccccc2)C(O)C2CCCN2)cc(N(C)S(C)(=O)=O)n1 (stereo not shown) [Example 12, hydrochloride]
Data request: Which gives the smaller pIC50 number: a or b ? Provide the label of your selected option as the answer.
Data returned: a
(a: 4.85, b: 7.82)
